target: Voltage-gated inwardly rectifying potassium channel KCNH2 (Homo sapiens, UniProt Q12809)
Sequence (Q12809 whole entry): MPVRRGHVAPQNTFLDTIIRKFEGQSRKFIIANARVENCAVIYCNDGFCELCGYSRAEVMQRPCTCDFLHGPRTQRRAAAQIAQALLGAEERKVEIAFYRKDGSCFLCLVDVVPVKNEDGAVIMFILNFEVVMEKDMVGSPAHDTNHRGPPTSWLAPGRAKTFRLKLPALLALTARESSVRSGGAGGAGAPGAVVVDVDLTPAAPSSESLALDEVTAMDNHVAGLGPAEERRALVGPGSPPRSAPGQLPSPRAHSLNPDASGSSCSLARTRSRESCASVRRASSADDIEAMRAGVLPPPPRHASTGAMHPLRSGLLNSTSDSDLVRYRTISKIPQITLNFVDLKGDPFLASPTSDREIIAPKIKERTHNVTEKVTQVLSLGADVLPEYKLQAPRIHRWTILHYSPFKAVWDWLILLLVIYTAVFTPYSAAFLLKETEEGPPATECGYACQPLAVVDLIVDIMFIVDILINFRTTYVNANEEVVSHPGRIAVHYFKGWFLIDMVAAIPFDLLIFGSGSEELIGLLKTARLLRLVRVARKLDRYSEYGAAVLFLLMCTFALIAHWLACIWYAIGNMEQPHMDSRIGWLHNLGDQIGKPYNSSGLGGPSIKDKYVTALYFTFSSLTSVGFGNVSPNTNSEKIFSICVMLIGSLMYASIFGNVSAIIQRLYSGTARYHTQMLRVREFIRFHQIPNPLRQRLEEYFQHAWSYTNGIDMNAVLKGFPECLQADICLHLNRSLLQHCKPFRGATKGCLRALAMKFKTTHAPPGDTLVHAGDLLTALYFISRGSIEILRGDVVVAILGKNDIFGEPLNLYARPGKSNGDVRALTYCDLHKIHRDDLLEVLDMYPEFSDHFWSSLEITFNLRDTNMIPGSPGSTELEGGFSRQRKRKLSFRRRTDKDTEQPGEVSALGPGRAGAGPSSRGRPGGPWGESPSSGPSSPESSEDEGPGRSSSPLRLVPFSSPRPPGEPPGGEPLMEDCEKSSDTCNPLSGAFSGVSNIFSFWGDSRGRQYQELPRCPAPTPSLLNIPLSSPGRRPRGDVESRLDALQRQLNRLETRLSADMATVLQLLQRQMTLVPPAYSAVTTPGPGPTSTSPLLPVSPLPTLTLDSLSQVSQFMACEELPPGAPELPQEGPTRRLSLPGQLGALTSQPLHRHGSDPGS
parameter: IC50

O=C(Nc1ccncc1)c1cn(Cc2ccc(Cl)c(Cl)c2)c(=O)c2cnn(C3CCNCC3)c12: > 25 µM

---

target: Cytochrome P450 2C19 (Homo sapiens)
Sequence (P33261 whole entry): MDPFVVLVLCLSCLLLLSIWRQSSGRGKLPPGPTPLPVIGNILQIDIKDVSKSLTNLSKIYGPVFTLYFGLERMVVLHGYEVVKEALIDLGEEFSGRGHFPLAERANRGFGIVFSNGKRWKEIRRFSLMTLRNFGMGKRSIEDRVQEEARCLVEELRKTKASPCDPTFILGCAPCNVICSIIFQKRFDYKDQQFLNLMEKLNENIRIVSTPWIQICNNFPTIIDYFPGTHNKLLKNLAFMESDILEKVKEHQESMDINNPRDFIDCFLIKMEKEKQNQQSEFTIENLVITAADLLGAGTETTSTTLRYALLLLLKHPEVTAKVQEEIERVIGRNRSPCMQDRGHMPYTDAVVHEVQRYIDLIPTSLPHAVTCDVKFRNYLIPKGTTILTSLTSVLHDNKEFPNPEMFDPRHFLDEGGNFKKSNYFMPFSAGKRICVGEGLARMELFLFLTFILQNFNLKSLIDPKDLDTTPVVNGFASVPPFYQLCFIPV
pIC50: −log10 of the molar value.
parameter: pIC50

O=C(Nc1ccncc1)c1cn(Cc2ccc(Cl)c(Cl)c2)c(=O)c2cnn(C3CCNCC3)c12: 4.66

---

biological target: Cytochrome P450 3A4 (Homo sapiens, UniProt P08684)
Sequence (P08684 whole entry): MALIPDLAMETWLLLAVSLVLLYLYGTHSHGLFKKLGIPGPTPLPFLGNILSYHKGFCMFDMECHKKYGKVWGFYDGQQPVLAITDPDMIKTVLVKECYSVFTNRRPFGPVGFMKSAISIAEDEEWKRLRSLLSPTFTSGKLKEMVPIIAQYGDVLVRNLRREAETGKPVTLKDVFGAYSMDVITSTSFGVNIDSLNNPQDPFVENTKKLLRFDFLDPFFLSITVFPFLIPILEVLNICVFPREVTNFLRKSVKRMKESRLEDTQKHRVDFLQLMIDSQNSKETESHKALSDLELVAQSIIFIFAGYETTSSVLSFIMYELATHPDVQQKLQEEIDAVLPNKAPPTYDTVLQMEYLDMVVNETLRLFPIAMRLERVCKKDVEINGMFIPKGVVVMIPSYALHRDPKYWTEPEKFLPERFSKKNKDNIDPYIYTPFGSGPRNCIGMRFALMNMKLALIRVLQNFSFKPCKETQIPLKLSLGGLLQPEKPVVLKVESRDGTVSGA
parameter: IC50 (µM)

O=C(Nc1ccncc1)c1cn(Cc2ccc(Cl)c(Cl)c2)c(=O)c2cnn(C3CCNCC3)c12: 7
